# System: SNB-19 CNS
# protocol: NCI-60 one-dose screen, 48 h
# setup_conditions: 10 µM unless noted
About 83,000 compounds went through this panel and 20% of them were active in at least one assay; those are over-represented in the sample as a whole. Activity calls are given as the source filed them. The calls were made as follows: active = growth percent below 10; inactive = the rest.
Mark one answer only. Choices: 1 (yes) (active), 0 (no) (inactive)

Check the results log: what was the call for N=C(N)c1nn(C2OC(CO)C(O)C2O)c2nc[nH]c(=O)c12 (centres undefined) ?
1 (yes)

Check the results log: what was the call for C=CCC(OC(C)=O)c1ccc(C(C)C)cc1 (centres undefined) ?
0 (no)

Check the results log: what was the call for O=Cc1c(O)c2ccccc2[nH]c1=O ?
0 (no)

Check the results log: what was the call for N#Cc1ccc(OC(=O)Nc2cc(Cl)cc(Cl)c2)cc1 ?
0 (no)

Check the results log: what was the call for CCNc1ncnc2[nH]ncc12 ?
0 (no)

Check the results log: what was the call for Nc1cc(F)ccc1[N+](=O)[O-] ?
0 (no)

Check the results log: what was the call for Clc1cccc(Cl)c1C1CSc2ccccc2N=C1c1ccccc1 (centres undefined) ?
0 (no)

Check the results log: what was the call for Cc1ccc(C2CCCCC2)cc1Br ?
0 (no)

Check the results log: what was the call for C=CC(C)C(C)(C)O (centres undefined) ?
0 (no)

Check the results log: what was the call for NNC(=O)c1ccccc1N ?
0 (no)

Check the results log: what was the call for COc1ccc(C)cc1NC(=O)SC(C)C ?
0 (no)

Check the results log: what was the call for OCC(O)COc1ccc(Cl)cc1Cl (centres undefined) ?
0 (no)

Check the results log: what was the call for C#CCSc1nnnn1-c1ccccc1 ?
0 (no)

Check the results log: what was the call for O=S(=O)(OCCOS(=O)(=O)c1ccccc1)c1ccccc1 ?
0 (no)

Check the results log: what was the call for COc1nc2ccccc2s1 ?
0 (no)

Check the results log: what was the call for NS(=O)(=O)c1cc(=O)[nH]c(=O)[nH]1 ?
0 (no)

Check the results log: what was the call for CC(=O)NC(O)C(Cl)Cl (centres undefined) ?
0 (no)

Check the results log: what was the call for CCCCOC(=O)c1ccc(NC(=O)CCl)cc1 ?
0 (no)

Check the results log: what was the call for COC1=C(OC)C(=O)C(SC/C=C(\C)CCCC(C)CCCC(C)CCCC(C)C)=CC1=O (centres undefined) ?
0 (no)

Check the results log: what was the call for COCC(N)=O ?
0 (no)

Check the results log: what was the call for CC(=O)OC(C)c1cccc(C#N)c1 (centres undefined) ?
0 (no)

Check the results log: what was the call for CSCC[C@@H]1C(=O)N(C)[C@H](C(C)(C)C)N1C(=O)c1ccccc1 ?
0 (no)

Check the results log: what was the call for ON1CCCC1 ?
0 (no)

Check the results log: what was the call for C=CCC(O)C=C (centres undefined) ?
0 (no)

Check the results log: what was the call for CCOC(=O)/C(C#N)=C\c1c[nH]c2ccccc12 ?
0 (no)

Check the results log: what was the call for Cc1cccc2ccccc12 ?
0 (no)

Check the results log: what was the call for Nc1cc2ccccc2c(O)c1O ?
0 (no)

Check the results log: what was the call for COc1cccc2c1Cc1ccccc1-2 ?
0 (no)

Check the results log: what was the call for CCN(CC)c1ccc2nc3ccc(N=Nc4ccc(N(C)C)cc4)cc3[n+](-c3ccccc3)c2c1 ?
0 (no)
